# tested target: human IFN-α14 (human, UniProt P01570 24-189)
# Sequence (P01570 24-189 limits assumed): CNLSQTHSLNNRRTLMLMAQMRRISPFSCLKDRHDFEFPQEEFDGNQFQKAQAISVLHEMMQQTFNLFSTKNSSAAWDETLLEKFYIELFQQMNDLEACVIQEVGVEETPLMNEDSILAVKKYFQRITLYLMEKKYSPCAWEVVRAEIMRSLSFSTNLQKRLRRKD
# method summary: cell-based or functional assay
In this section we review reported IC 50 (ng/ml), ISRE dual luciferase reporter assay values for a set of binders.
value type: IC 50 (ng/ml), ISRE dual luciferase reporter assay (ng/mL)

>>> measured_value("8H1 (antibody, human IgG1, kappa, V domains shown) VH: QVQLVQSGAEVKKPGASVKVSCKASGQTFTSDDINWVRQAPGQGLEWMGWRNPNTQDTGYAQKFHGRLTLTSNSSISTSYLELSGLRSEDTAVYYCARAGTSTLTGHYFALGVWGQGTTVIVSS VL: DIQLTQSPSSLSASVGDRVTITCQATQDISKYLNWYQQKPGKVPKLLIYETSNLEVGVPSRFSGSGSGTHFTLTISSLQAEDFATYYCQQYENFPFTFGGGTKVEIKR")
785
>>> measured_value("26B9 (antibody, human IgG1, kappa, V domains shown, human-derived IgG1, kappa; also called MAB 26B9; hMAB 26B9) VH: QILLQESGPGLVKPTETLSLTCSVSGDSISDSSHYWAWIRQPPGKGPEWIGSVYFSSMTHYNPSLKSRVSISVDKPKNQFSLKVTSVTVADTATYYCARQALARVGAMNWFDPWGQGSLVTVSS VL: DIIMTQSPDSLPVSLGEGVTINCKSSQSVFFTSSNKSCLAWYQQKPGKSPKLLIYWASTRQSGVPDRFRGSGSGTDFSLTITSLQAEDVAVYFCQQCQTSPPTFGGGTRLEIKR")
2.01
>>> measured_value("12H5 (antibody, human IgG1, kappa, V domains shown) VH: QVQLIQSGPEVKRPGASVKVSCKASENTFDTHYINWVRQAPGQGLTWLGWLNPTTGKTGFPQKFKGRVILTSDTSLNTAYMEVSRLTSEDTAVYFCARVLKLSDEYNYGFDVWGQGTTVIVSS VL: DIQVTQSPSSLSASIGDRVTITCRASQNILTFINWYQHKPGKAPKLLIYAASVLQNEVPSRFSGSGSGTDFTLTITSLQPDDFGTYYCQQTYLTPQCSFGQGTKVEIKR")
2.15
